Target: BTK (Homo sapiens, UniProt Q06187)
Construct: purchased Eurofins DiscoverX KINOMEscan (scanTK)
Sequence (Q06187 whole entry): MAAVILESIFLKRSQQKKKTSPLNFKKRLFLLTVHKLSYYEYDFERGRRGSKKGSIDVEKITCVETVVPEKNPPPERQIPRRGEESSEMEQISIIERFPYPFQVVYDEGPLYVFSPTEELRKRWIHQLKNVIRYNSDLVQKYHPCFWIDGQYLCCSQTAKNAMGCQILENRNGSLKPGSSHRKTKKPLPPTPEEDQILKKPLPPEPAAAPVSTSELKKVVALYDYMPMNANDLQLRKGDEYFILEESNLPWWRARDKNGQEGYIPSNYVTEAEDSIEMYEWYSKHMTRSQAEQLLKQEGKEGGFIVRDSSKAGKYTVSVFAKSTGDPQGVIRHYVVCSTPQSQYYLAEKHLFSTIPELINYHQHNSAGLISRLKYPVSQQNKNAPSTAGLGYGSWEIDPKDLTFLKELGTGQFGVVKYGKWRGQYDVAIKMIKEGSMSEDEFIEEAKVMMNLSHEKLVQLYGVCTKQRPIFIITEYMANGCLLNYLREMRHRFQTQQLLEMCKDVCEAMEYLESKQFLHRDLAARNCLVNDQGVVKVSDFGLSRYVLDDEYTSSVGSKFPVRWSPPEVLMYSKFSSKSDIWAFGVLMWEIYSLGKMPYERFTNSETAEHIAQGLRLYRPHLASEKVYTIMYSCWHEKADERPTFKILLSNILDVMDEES
Assay: KINOMEscan ScanTK
Format: binding
Settings: ScanTK, 1 μM
The entries below are paired with their reported inhibition at 1 µM.

Here is how some compounds turned out for inhibition at 1 µM.
query: Using the record for CCOC(=O)c1cnc(S(C)(=O)=O)nc1N1CCC[C@@H](n2nc(-c3ccc(Oc4ccccc4)cc3)c3c(N)ncnc32)C1 , report its inhibition at 1 µM.
result: 82%

query: Entry Cc1cnc(S(C)(=O)=O)nc1N1CCCC(n2nc(-c3ccc(Oc4ccccc4)cc3)c3c(N)ncnc32)C1 (stereo not shown) please
result: > 99%

query: Entry CNC(=O)c1cnc(S(C)(=O)=O)nc1N1CCCC(n2nc(-c3ccc(Oc4ccccc4)cc3)c3c(N)ncnc32)C1 (stereo not shown) please
result: > 99%

More entries:
query: Using the record for COC(=O)c1cnc(S(C)(=O)=O)nc1N1CCCC(n2nc(-c3ccc(Oc4ccccc4)cc3)c3c(N)ncnc32)C1 (stereo not shown) , report its inhibition at 1 µM.
result: > 99%

====

Target: CSF1R-autoinhibited (Homo sapiens)
Construct: purchased Eurofins DiscoverX KINOMEscan (scanTK)
Sequence (P07333 539-972 limits assumed): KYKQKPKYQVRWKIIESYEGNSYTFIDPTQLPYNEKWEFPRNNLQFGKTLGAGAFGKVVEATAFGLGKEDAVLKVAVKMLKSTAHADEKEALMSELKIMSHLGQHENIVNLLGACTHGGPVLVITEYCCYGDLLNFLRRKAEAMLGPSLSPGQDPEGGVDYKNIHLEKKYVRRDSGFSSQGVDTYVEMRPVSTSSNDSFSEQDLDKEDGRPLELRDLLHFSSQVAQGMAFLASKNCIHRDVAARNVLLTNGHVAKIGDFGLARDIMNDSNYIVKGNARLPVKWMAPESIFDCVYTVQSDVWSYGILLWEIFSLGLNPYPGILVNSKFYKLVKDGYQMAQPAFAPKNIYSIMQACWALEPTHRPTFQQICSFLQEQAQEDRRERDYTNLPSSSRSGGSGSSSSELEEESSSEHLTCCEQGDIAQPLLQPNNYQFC
Test: KINOMEscan ScanTK
Format: binding
Details: read-out: %Control @1000nM
attribute measured: remaining binding at 1 µM (%)

query: State its remaining binding at 1 µM on CSF1R-autoinhibited (Homo sapiens): COC(=O)c1cnc(S(C)(=O)=O)nc1N1CCCC(n2nc(-c3ccc(Oc4ccccc4)cc3)c3c(N)ncnc32)C1 (centres unmarked) [Compound 8b]
result: 84

query: Entry Cc1cnc(S(C)(=O)=O)nc1N1CCCC(n2nc(-c3ccc(Oc4ccccc4)cc3)c3c(N)ncnc32)C1 (centres unmarked) [Compound 8a] please
result: 88

query: Entry C=CC(=O)N1CCC[C@@H](n2nc(-c3ccc(Oc4ccccc4)cc3)c3c(N)ncnc32)C1 [Compound 1g, Ibrutinib, reference compound] please
result: 77

query: Entry CNC(=O)c1cnc(S(C)(=O)=O)nc1N1CCCC(n2nc(-c3ccc(Oc4ccccc4)cc3)c3c(N)ncnc32)C1 (centres unmarked) [Compound 8d] please
result: 86

query: Entry CCOC(=O)c1cnc(S(C)(=O)=O)nc1N1CCC[C@@H](n2nc(-c3ccc(Oc4ccccc4)cc3)c3c(N)ncnc32)C1 [Compound 8c] please
result: 97

====

Molecular target: BTK, full length (2–659) (Homo sapiens, UniProt Q06187)
Sequence (Q06187 2-659): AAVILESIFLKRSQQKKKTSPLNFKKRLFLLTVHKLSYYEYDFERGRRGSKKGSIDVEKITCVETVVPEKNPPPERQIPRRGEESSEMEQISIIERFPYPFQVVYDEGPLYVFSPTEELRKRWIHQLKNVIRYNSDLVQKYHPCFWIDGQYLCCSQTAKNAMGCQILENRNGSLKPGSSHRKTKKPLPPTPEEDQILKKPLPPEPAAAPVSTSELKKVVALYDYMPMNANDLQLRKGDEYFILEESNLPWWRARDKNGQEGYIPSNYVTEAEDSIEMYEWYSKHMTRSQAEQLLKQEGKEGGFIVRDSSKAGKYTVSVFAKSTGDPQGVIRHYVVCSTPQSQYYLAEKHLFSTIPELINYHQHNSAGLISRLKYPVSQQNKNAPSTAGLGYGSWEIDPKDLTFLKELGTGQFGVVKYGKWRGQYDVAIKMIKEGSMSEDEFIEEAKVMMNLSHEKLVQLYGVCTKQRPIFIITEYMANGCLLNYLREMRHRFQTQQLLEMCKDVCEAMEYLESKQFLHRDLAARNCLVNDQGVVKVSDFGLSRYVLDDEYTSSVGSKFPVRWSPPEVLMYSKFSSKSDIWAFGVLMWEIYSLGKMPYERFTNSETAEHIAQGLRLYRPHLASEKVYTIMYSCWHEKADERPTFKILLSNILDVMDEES
Assay: PhosphoSens enzymatic IC50 (AssayQuant)
Type: biochemical
Details: 60 min preincubation IC50 (nM), 1 nM BTK, 60 min preincubation; 1.0 mM ATP
attribute measured: IC50 (nM)

query: Using the record for CNC(=O)c1cnc(S(C)(=O)=O)nc1N1CCCC(n2nc(-c3ccc(Oc4ccccc4)cc3)c3c(N)ncnc32)C1 (stereo not drawn) , report its IC50.
result: 1.2

P: COC(=O)c1cnc(S(C)(=O)=O)nc1N1CCCC(n2nc(-c3ccc(Oc4ccccc4)cc3)c3c(N)ncnc32)C1 (stereo not drawn)
Q: Cc1cnc(S(C)(=O)=O)nc1N1CCCC(n2nc(-c3ccc(Oc4ccccc4)cc3)c3c(N)ncnc32)C1 (stereo not drawn)
query: Of P and Q , whose reported IC50 is the larger number? // return label of chosen record
result: P
(P: 6.3 nM, Q: 0.31 nM)
